System: cholesterol biosynthesis in HepG2 cells
Experiment: Metabolic labeling of HepG2 cells with [3H]acetate; radio-HPLC sterol profile (inhibition of cholesterol biosynthesis)
Format: cell-based, human
Settings: Homo sapiens, 24 h; Table I; 10 μM compound, HepG2; sterol level normalized to normal medium (1.00); mean of 4 experiments; read-out: FF-MAS
Procedure: In accordance with the aims of the invention, the effect of the novel compounds on inhibition of cholesterol biosynthesis is assessed. An ex vivo method of metabolic labeling of immortal human hepatocytes is employed. […] After 24 hours the growth medium is changed and [^3H]acetate (NEN™ Life Science Products) added in a concentration of 40 μCi per ml of the medium (400 μCi per flask). […] From cell homogenate sterols are extracted and protein concentration determined using the Bio-Rad reagent. […]
Structures can show the parent of a compound that is named as a salt.
PROPERTY LABEL: activity at 10 µM (%)
Number in %, nothing else.

Query the reported activity at 10 µM for cholesterol biosynthesis in HepG2 cells; item: OC(CN1CCN(Cc2ccc(F)cc2)CC1)c1cccnc1 (stereo not shown) [LK-9148, trihydrobromide]
125

Quick check: activity at 10 µM on cholesterol biosynthesis in HepG2 cells, item Cc1ccc(C(O)CN2CCN(CCc3ccccc3)CC2)cn1 (stereo not shown) [LK-9139, trihydrobromide] ?
119

Query for cholesterol biosynthesis in HepG2 cells: what activity at 10 µM does the record show for OC(CN1CCN(c2ccc(F)cc2)CC1)c1cccnc1 (stereo not shown) [LK-9144, trihydrobromide] ?
99

Hi! What's the reported activity at 10 µM for c1ccc(CCN2CCN(CCc3cccnc3)CC2)cc1 [LK-9100, trihydrobromide] on cholesterol biosynthesis in HepG2 cells?
241

Could you share what activity at 10 µM was measured for OC(CN1CCN(CCc2ccccc2)CC1)c1cccnc1 (stereo not shown) [LK-980, trihydrobromide] , tested on cholesterol biosynthesis in HepG2 cells?
254

Query the reported activity at 10 µM for cholesterol biosynthesis in HepG2 cells; item: Fc1ccc(CCN2CCN(CCc3ccncc3)CC2)cc1F [LK-9131, trihydrobromide]
72

Write down the reported activity at 10 µM of Fc1ccc(CCN2CCN(CCc3ccccn3)CC2)cc1F [LK-9138, trihydrobromide] , test system: cholesterol biosynthesis in HepG2 cells.
70

* * *

System: cholesterol biosynthesis in HepG2 cells
Experiment: Metabolic labeling of HepG2 cells with [3H]acetate; radio-HPLC sterol profile (inhibition of cholesterol biosynthesis)
Format: cell-based, human
Conditions: Table II (arranged by sterol profile); 10 μM compound, HepG2; normalized to normal medium (1.00)
Where a name gives a salt, the structure may show the parent alone.
Cut-off 1 on lanosterol, inclusive. At or above means YES; below means NO.

Say whether Cc1ccc(C(O)CN2CCN(CCc3ccccc3)CC2)cn1 (centres unmarked) [LK-9139, trihydrobromide] shows lanosterol of 1 or more.
NO

Item OC(CN1CCN(CCc2ccccc2)CC1)c1ccc2ccccc2c1 (centres unmarked) [LK-9111B] with lanosterol of 1 or above?
YES

Evaluate FC(F)(F)c1cnc(N2CCCN(CCc3ccccc3)CC2)c(Cl)c1 [LK-9115, trihydrobromide] : lanosterol at minimum 1?
NO

Has OC(CN1CCN(CCc2ccccc2)CC1)c1ccncc1 (centres unmarked) [LK-9110B] a recorded lanosterol greater than or equal to 1?
NO

Can OC(CN1CCN(Cc2ccc(F)cc2)CC1)c1cccnc1 (centres unmarked) [LK-9148, trihydrobromide] be said to have lanosterol at or above 1?
NO

From: patent US20090018118A1
